assay: Metal chelating activity assessed as Cu2+-compound complex formation at 50 uM after 10 mins by UV-Vis spectroscopic method
Activity calls are given as the source filed them. The calls are words filed in the database; no cut-off is given here.

smiles_repr	Activity
COc1cc(/C=C/C(=O)C(Cc2cn(CCCCC(=O)NCCCN3CCN(CCCNCCN[C@H]4CC[C@@]5(C)C(=CC[C@H]6[C@@H]7CC[C@H]([C@H](C)CCCC(C)C)[C@@]7(C)CC[C@@H]65)C4)CC3)nn2)C(=O)/C=C/c2ccc(O)c(OC)c2)ccc1O	inactive
COc1cc(/C=C/C(=O)C(Cc2cn(CCCCNC(=O)CCC(=O)NCCCN3CCN(CCCNCCN[C@H]4CC[C@@]5(C)C(=CC[C@H]6[C@@H]7CC[C@H]([C@H](C)CCCC(C)C)[C@@]7(C)CC[C@@H]65)C4)CC3)nn2)C(=O)/C=C/c2ccc(O)c(OC)c2)ccc1O	inactive
COc1cc(/C=C/C(=O)C(Cc2cn(CCCCC(=O)NCCCN3CCN(CCCNC(=O)CCN4CCN(CCCN[C@H]5CC[C@@]6(C)C(=CC[C@H]7[C@@H]8CC[C@H]([C@H](C)CCCC(C)C)[C@@]8(C)CC[C@@H]76)C5)CC4)CC3)nn2)C(=O)/C=C/c2ccc(O)c(OC)c2)ccc1O	inactive

----------
assay: Metal chelating activity assessed as Zn2+-compound complex formation at 50 uM after 10 mins by UV-Vis spectroscopic method
Activity calls are given as the source filed them. The calls are words filed in the database; no cut-off is given here.
observation_type: Activity

Examples with answers:
smiles_repr	Activity
COc1cc(/C=C/C(=O)C(Cc2cn(CCCCC(=O)NCCCN3CCN(CCCNC(=O)CCN4CCN(CCCN[C@H]5CC[C@@]6(C)C(=CC[C@H]7[C@@H]8CC[C@H]([C@H](C)CCCC(C)C)[C@@]8(C)CC[C@@H]76)C5)CC4)CC3)nn2)C(=O)/C=C/c2ccc(O)c(OC)c2)ccc1O	inactive
COc1cc(/C=C/C(=O)C(Cc2cn(CCCCNC(=O)CCC(=O)NCCCN3CCN(CCCNC(=O)CCN4CCN(CCCN[C@H]5CC[C@@]6(C)C(=CC[C@H]7[C@@H]8CC[C@H]([C@H](C)CCCC(C)C)[C@@]8(C)CC[C@@H]76)C5)CC4)CC3)nn2)C(=O)/C=C/c2ccc(O)c(OC)c2)ccc1O	inactive
COc1cc(/C=C/C(=O)C(Cc2cn(CCCCC(=O)NCCCN3CCN(CCCNCCN[C@H]4CC[C@@]5(C)C(=CC[C@H]6[C@@H]7CC[C@H]([C@H](C)CCCC(C)C)[C@@]7(C)CC[C@@H]65)C4)CC3)nn2)C(=O)/C=C/c2ccc(O)c(OC)c2)ccc1O	inactive
COc1cc(/C=C/C(=O)C(Cc2cn(CCNC(=O)CCC(=O)NCCCN3CCN(CCCNC(=O)CCN4CCN(CCCN[C@H]5CC[C@@]6(C)C(=CC[C@H]7[C@@H]8CC[C@H]([C@H](C)CCCC(C)C)[C@@]8(C)CC[C@@H]76)C5)CC4)CC3)nn2)C(=O)/C=C/c2ccc(O)c(OC)c2)ccc1O	inactive
COc1cc(/C=C/C(=O)C(Cc2cn(CCCCNC(=O)CCC(=O)NCCCN3CCN(CCCNCCN[C@H]4CC[C@@]5(C)C(=CC[C@H]6[C@@H]7CC[C@H]([C@H](C)CCCC(C)C)[C@@]7(C)CC[C@@H]65)C4)CC3)nn2)C(=O)/C=C/c2ccc(O)c(OC)c2)ccc1O	inactive
COc1cc(/C=C/C(=O)C(Cc2cn(CCNC(=O)CCC(=O)NCCCN3CCN(CCCNCCN[C@H]4CC[C@@]5(C)C(=CC[C@H]6[C@@H]7CC[C@H]([C@H](C)CCCC(C)C)[C@@]7(C)CC[C@@H]65)C4)CC3)nn2)C(=O)/C=C/c2ccc(O)c(OC)c2)ccc1O	inactive

Kindly review the next molecule as well.
*Q* Output measured Activity for this item: `COc1cc(/C=C/C(=O)C(Cc2cn(CCC(=O)NCCCN3CCN(CCCNC(=O)CCN4CCN(CCCN[C@H]5CC[C@@]6(C)C(=CC[C@H]7[C@@H]8CC[C@H]([C@H](C)CCCC(C)C)[C@@]8(C)CC[C@@H]76)C5)CC4)CC3)nn2)C(=O)/C=C/c2ccc(O)c(OC)c2)ccc1O`
*A* inactive

Provenance of the data: ChEMBL document CHEMBL4184300
